Hello, the source for this data is the supplement of paper PMC8728848, in case you need it.

studyTarget: Man(a1-2)Man(a1-2)Man(a1-3)Man
protocolDetails: glycan array binding signal (z-score within array); higher = stronger binding
conditionNotes: glycan notation: IUPAC condensed, linker removed
This is one part of a sample in which the strongest signals are shown more often than they occur.
parameterMeasured: glycan array binding signal (z-score)
Give the figure only, with no unit attached.

Which glycan array binding signal (z-score) is listed for Gal-9-hFc (Mus musculus), O08573-2 (protein) MALFSAQSPYINPIIPFTGPIQGGLQEGLQVTLQGTTKSFAQRFVVNFQNSFNGNDIAFHFNPRFEEGGYVVCNTKQNGQWGPEERKMQMPFQKGMPFELCFLVQRSEFKVMVNKKFFVQYQHRVPYHLVDTIAVSGCLKLSFITFQTQNFRPAHQAPMAQTTIHMVHSTPGQMFSTPGIPPVVYPTPAYTIPFYTPIPNGLYPSKSIMISGNVLPDATRFHINLRCGGDIAFHLNPRFNENAVVRNTQINNSWGQEERSLLGRMPFSRGQSFSVWIICEGHCFKVAVNGQHMCEYYHRLKNLQDINTLEVAGDIQLTHVQT ? -0.431

Which glycan array binding signal (z-score) is listed for TbCVNHOb (Tuber borchii) (protein) MSFYASSEDVRTIEEGGRTWLVGRARRADGSWQDIKLDLDNIIGNRDGHLTWGEQNFTQSASDIRFNFEGGSNVPVLRAKLRNAAGGEQESDLNLGERLTNNNGDLVFN ? 1.35
